Here the recorded Percent Effect is given for each entry.
System: Wolbachia pipientis
Test: Anti-Wolbachia Cell-Based Screen
Assay type: functional
Set-up: scale not given: in the data most compounds retested in dose-response had high values
Settings: 5 µM
Among all 48,000 compounds or so, about 13,000 (27%) showed an effect of 50% or more. This is one part of the list.
TEST_READOUT: Percent Effect (%)

# MOLECULE, EXPERIMENTAL_VALUE
rows = [
    ("COCCS(=O)(=O)N1CCN(c2cccc(O)c2)CC1", 9.959),
    ("Cc1cccc(CN2C(=O)CCC23CCN(c2ccccn2)CC3)n1.O=C(O)C(F)(F)F.O=C(O)C(F)(F)F", 98.24),
    ("CCN1CC2(CCOCC2)c2cc(NS(=O)(=O)CC)ccc21.O=C(O)C(F)(F)F", 93.24),
    ("CCOCC1CN(C(=O)c2ccoc2)Cc2cnn(C)c21 (configuration not stated)", 92.74),
    ("Cc1cnn(C2CCCN(C(=O)Cc3c(C)nn(C)c3C)C2)c1 (configuration not stated)", 112.6),
    ("O=C1N(c2cccc(Cl)c2)Cc2nc(=O)[nH]n21", -8.298),
    ("COCCN(C)C(=O)Nc1ccn(-c2cccc(C(F)(F)F)c2)n1", -15.63),
    ("COc1ccccc1CC1CCCN(C(=O)c2n[nH]c3c2CCC3)C1 (configuration not stated)", -10.41),
    ("O=C1NC[C@@]2(C(=O)O)CN(Cc3cccc(OC4CCCC4)c3)C[C@@H]12", -26.72),
    ("CC1=C(CCN2CCCC(O)C2)C(C)(C)CCC1 (configuration not stated)", -3.829),
    ("Cc1cc(S(=O)(=O)Nc2cccc(-n3cccc3)c2)sc1C(=O)O", -5.79),
    ("COc1cccc(CCC2CCCN(C(=O)c3n[nH]c4c3CCC4)C2)c1 (configuration not stated)", 9.398),
    ("CSCC(C)(O)CNC(=O)c1cc(Cl)ccc1Cl (configuration not stated)", 2.772),
    ("C=C(C)CN1CCC(NC(=O)NCCc2cccc(C(N)=O)c2)CC1", -8.268),
    ("O=C(c1ccoc1)N1CCc2c(COCC3CC3)cncc2C1", -80.75),
    ("Cc1cccc(CN2CCOC3(COCCN(CCN(C)C)C3)C2)n1.O=C(O)C(F)(F)F.O=C(O)C(F)(F)F.O=C(O)C(F)(F)F (configuration not stated)", -6.557),
    ("Cc1noc(C)c1CC(=O)N1CCCC(c2noc(C(C)C)n2)C1 (configuration not stated)", -25.9),
    ("CO[C@H]1C[C@@H]2CN(C(=O)c3n[nH]c4c3CCCC4)C[C@@H]2C1", 95.28),
    ("CN(CC(C)(C)C)c1ccc(C(=O)NCCCc2ccccn2)cn1", -1.973),
    ("CCN1C(=O)C2(CCOCC2)c2cc(NC(=O)c3csnn3)ccc21", 5.242),
    ("Cc1cccc(CN2CCC3(CCCN(C(=O)NC(C)C)C3)C2=O)n1.O=C(O)C(F)(F)F (configuration not stated)", -6.059),
    ("Cc1nccn1C1CCCN(C(=O)Cn2ccc(=O)n(C)c2=O)C1 (configuration not stated)", -5.053),
    ("O=C(c1ccoc1)N1CCn2cnc(COCC3CC3)c2C1", -6.66),
    ("CCN1C(=O)C2(CCOCC2)c2cc(NC(=O)c3cnoc3C)ccc21", -1.334),
    ("CCS(=O)(=O)Nc1ccc2c(c1)C1(CCOCC1)CN2C.O=C(O)C(F)(F)F", 89.45),
    ("COCC1CCCCN1C(=O)c1cc(-c2cccc(OC)c2)n[nH]1 (configuration not stated)", -6.685),
    ("CCCC(C)(C)NC(=O)c1ccc(CC2CC(=O)NC2=O)cc1 (configuration not stated)", -6.168),
    ("Cc1ncccc1C(=O)Nc1cccc(Cn2ccccc2=O)c1", 100.7),
    ("Cc1cc(C(C)NCCN2CCC(N(C)C)CC2)c(C)s1 (configuration not stated)", -5.987),
    ("O=C(CCn1ccccc1=O)Nc1ccc(I)cc1", -0.04239),
    ("CN(c1ccc(C(=O)NCCCN2CCOCC2)c(Cl)c1)S(C)(=O)=O", -4.637),
    ("Cc1nn(C)c(C)c1CC(=O)N1CCCC(n2ccnc2)C1 (configuration not stated)", -6.925),
    ("Cc1cc(CN(C)C(=O)c2cccc(N3CCCC3=O)c2)no1", 3.879),
    ("Cc1ncccc1C(=O)Nc1ccc2ccn(CCN(C)C)c2c1", -6.665),
    ("CC(C)c1nc2cc(NC(=O)Cn3ccccc3=O)ccc2o1", 6.336),
    ("Cc1cccc(CN2C(=O)CCC23CCN(C(=O)NC(C)C)CC3)n1.O=C(O)C(F)(F)F", 107.8),
    ("CC(Cc1cccnc1)Nc1ncnc2cccc(F)c12 (configuration not stated)", -13.17),
]
